Test: qHTS assay to test for compound auto fluorescence at 460 nm (blue) in HEK293 cell free culture (AID 720681); note: % is set by controls: 0 for no effect and ±100 for the full control effect
Settings: cell-free medium, autofluorescence 405/460 nm (blue); series mostly up to 91.3 µM
The source made the active and inactive calls. Calls come from the whole dose curve; as a rule, active = well fitted curve in the direction sought with a large enough effect in the repeat runs; inconclusive = weak or mixed curves; inactive = flat fitted curve, though single readings scatter.

{"columns": ["Compound", "fluorescence, % of fluorescent control"],
 "data": [
  ["c1ccc(CNCc2ccccc2)cc1", "inactive"],
  ["CC(=O)c1ccc2c(c1)[C@H](NC(=O)c1ccc(F)cc1)[C@@H](O)C(C)(C)O2", "inactive"],
  ["O=C1[C@H](CC[C@H](O)c2ccc(F)cc2)[C@@H](c2ccc(O)cc2)N1c1ccc(F)cc1", "inactive"],
  ["Oc1ccc(Cc2ccccc2)cc1", "inactive"],
  ["CCC(=O)OC(C)(C)C1CC=C(C)CC1 (centres undefined)", "inactive"],
  ["O=c1c2ccccc2nnn1CCl", "inactive"],
  ["CCOc1ccc(NC(=O)CC(C)=O)cc1", "inactive"],
  ["CN1CCC[C@@H]1c1cccnc1", "inactive"],
  ["CC[C@@H]1C[C@H](N(Cc2cc(C(F)(F)F)cc(C(F)(F)F)c2)C(C)=O)c2cc(C(F)(F)F)ccc2N1C(=O)OC(C)C", "inactive"],
  ["COCCOCCOCCOCCOC", "inactive"],
  ["Cn1c(NCCN(CCO)CCCc2ccc([N+](=O)[O-])cc2)cc(=O)n(C)c1=O", "inactive"],
  ["CC(C)c1cccc(C(C)C)c1NC(=O)NS(=O)(=O)c1cc(C(C)(C)O)co1", "inactive"],
  ["CCN(CC)CCc1nc(-c2ccccc2)no1", "-0.0186% [at 18.6 µM] (inactive)"],
  ["CCCCCCOC(=O)CCC", "inactive"],
  ["CC(=O)/C=C/C1C(C)=CCCC1(C)C (centres undefined)", "inactive"],
  ["CC(=O)O[C@H]1C[C@@H]2CC[C@@H]3[C@H](CC[C@@]4(C)[C@H]3C[C@H]([N+]3(C)CCCCC3)[C@@H]4OC(C)=O)[C@@]2(C)C[C@@H]1N1CCCCC1", "inactive"],
  ["Cl/C(=C\\n1cncn1)c1ccc(Cl)cc1Cl", "inactive"],
  ["CC(=O)[C@@]1(O)CC[C@H]2[C@@H]3C[C@H](C)C4=CC(=O)CC[C@]4(C)[C@H]3CC[C@@]21C", "inactive"],
  ["CCOC(=S)SSC(=S)OCC", "inactive"],
  ["Cc1cc(O)ccc1N", "inactive"],
  ["CC[C@]12CCCN3CCc4c(n(c5ccccc45)C(=O)C1)[C@@H]32", "-0.0431% [at 18.6 µM] (inactive)"],
  ["Cn1c(=O)c2c(ncn2CC(O)CO)n(C)c1=O (centres undefined)", "-0.0654% [at 18.6 µM] (inactive)"],
  ["CCCCc1cc2ccccc2c(OCCN(C)C)n1", "-0.0502% [at 18.6 µM] (inactive)"],
  ["CC(C)(C)c1cc(O)c(C(C)(C)C)cc1O", "inactive"]
]}

----------
Target: Luciferin 4-monooxygenase (Photinus pyralis)
Assay: qHTS assay to identify small molecule inhibitors of firefly luciferase (AID 1224835); note: nearly all actives have a fitted effect of over 25% in size
Details: purified P. pyralis luciferase, luminescence inhibition; series mostly up to 115 µM
Records with an inconclusive call do not appear. Activity calls are given as the source filed them. Calls come from the whole dose curve; as a rule, active = well fitted inhibition curve with a large enough effect in the repeat runs; inconclusive = weak or mixed curves; inactive = flat fitted curve, though single readings scatter.
Classes used: Yes = active, No = inactive

{"columns": ["Molecule", "Class label"],
 "data": [
  ["O=C1CCCCCO1", "No"],
  ["CC(=O)Nc1ccc(/C=N/NC(N)=S)cc1", "No"],
  ["CCCCCCCC/C=C\\CCCCCCCC(N)=O", "No"],
  ["C=Cc1c(C)c2cc3[nH]c(cc4nc(cc5nc(cc1[nH]2)C(C)=C5CCC(=O)O)C(CCC(=O)O)=C4C)c(C)c3C=C", "No"],
  ["Cn1c(=O)c2c(ncn2CC(O)CO)n(C)c1=O (stereo unspecified)", "No"],
  ["CCCCCCCCCC(=O)OCC", "No"],
  ["CCCCCCCCCCCCCCC1CO1 (stereo unspecified)", "No"],
  ["COc1ccc(C(C)=O)cc1", "No"],
  ["COC(=O)C(C)=O", "No"],
  ["O=c1c2ccccc2nnn1CCl", "No"],
  ["CC(=O)N(CC(=O)N(C)C)c1ccccc1", "No"],
  ["C1=Cc2ccccc2C1", "No"],
  ["Oc1ccc(O)c2c(O)cccc12", "No"],
  ["C=CCCCCCC", "No"],
  ["O=C(NS(=O)(=O)/C=C/c1cccs1)c1ccc(F)cc1Br", "No"],
  ["CCC(C)N(C)C(=O)c1cc2ccccc2c(-c2ccccc2Cl)n1 (stereo unspecified)", "No"],
  ["CC(C)=CCCC(C)CC=O (stereo unspecified)", "No"],
  ["CC(=O)O[C@@H]1C(=O)O[C@@H]2[C@H]1OC(=O)[C@@H]2OC(C)=O", "No"],
  ["CC(C)(C)C1CCCCC1O (stereo unspecified)", "No"],
  ["c1ccc(-c2nc[nH]c2-c2ccccc2)cc1", "No"],
  ["CCCCOc1ccc(CC(=O)NO)cc1", "No"],
  ["C[C@H](CCC(=O)O)[C@H]1CC[C@H]2[C@@H]3[C@H](O)C[C@@H]4C[C@H](O)CC[C@]4(C)[C@H]3CC[C@]12C", "Yes"],
  ["Cc1occc1S", "No"],
  ["Nc1nc(N)c2nc(CNc3ccc(C(=O)N[C@@H](CCC(=O)O)C(=O)O)cc3)cnc2n1", "No"],
  ["CCOC(=O)CC(C)C", "No"],
  ["C=CC[N+]1([C@H]2C[C@H]3[C@@H]4CC[C@H]5C[C@H](OC(C)=O)[C@@H](N6CCCCC6)C[C@]5(C)[C@H]4CC[C@]3(C)[C@H]2OC(=O)CC)CCCCC1", "No"],
  ["CC(=O)NCCCS(=O)(=O)O", "No"],
  ["Cc1ccc(C(C)c2ccc(C)c(C)c2)cc1C", "No"],
  ["O=C1Nc2cc(Cl)ccc2Oc2ccccc21", "No"],
  ["C=CC(=O)OCCOC(=O)CCC(=O)O", "No"],
  ["CC(C)CCCC(C)CCO (stereo unspecified)", "No"],
  ["ClC(Cl)(Cl)c1ccc(C(Cl)(Cl)Cl)cc1", "No"],
  ["NC(N)=N/N=C/c1c(Cl)cccc1Cl", "No"],
  ["CC(C)NCC(O)c1cc(O)cc(O)c1 (stereo unspecified)", "No"],
  ["Cc1ccc(C(N)=O)cc1N", "No"],
  ["NCCCOCCOCCOCCCN", "No"],
  ["NC(N)=NN=C(/C=C/c1ccc([N+](=O)[O-])o1)/C=C/c1ccc([N+](=O)[O-])o1", "Yes"],
  ["CN(C)CCCOc1nn(Cc2ccccc2)c2ccccc12", "No"],
  ["COc1ccc(OC)c(OC)c1", "No"],
  ["Nc1cnn([C@@H]2O[C@H](CO)[C@@H](O)[C@H]2O)c(=O)n1", "No"],
  ["Cc1ccc(C(=O)C(C)CN2CCCCC2)cc1 (stereo unspecified)", "No"],
  ["CC(=O)SCc1ccco1", "No"],
  ["CC(C)CC=O", "No"],
  ["C=C(C)C(=O)OC(C)C", "No"],
  ["CC/C(=C\\C(=N/O)C(N)=O)C(C)[N+](=O)[O-] (stereo unspecified)", "No"],
  ["CCCCCCOC(=O)CCC", "No"],
  ["CC(C(=O)O)c1ccc(C(=O)c2ccccc2)s1 (stereo unspecified)", "Yes"],
  ["CC(CN)CCCN (stereo unspecified)", "No"],
  ["CCOc1nc2cccc(C(=O)O)c2n1Cc1ccc(-c2ccccc2-c2nn[nH]n2)cc1", "No"],
  ["CN(C)CCCNCCCN", "No"],
  ["CCCCCOC(=O)COc1cc(N2C(=O)C3=C(CCCC3)C2=O)c(F)cc1Cl", "No"],
  ["CN1CCC(OC(c2ccccc2)c2ccccc2)CC1", "No"],
  ["CN1CCN(C2=Nc3cc(Cl)ccc3Nc3ccccc32)CC1", "No"],
  ["CCCCCOC(=O)c1ccc(O)cc1", "Yes"],
  ["S=C(S)NCCNC(=S)S", "No"],
  ["CN1CCC(=C2c3ccccc3C=Cc3ccccc32)CC1", "No"]
]}

----------
Potency values by entry
Test: qHTS RealTime-Glo MT Cell Viability Assay in HEK293 cells - 40 hour (AID 1224874); note: potency is the fitted concentration of half-maximal effect; nearly all actives have a fitted effect of over 50% in size
Conditions: RealTime-Glo luminescence
Inconclusive results are not listed. Calls of active or inactive are those of the source. Calls follow the shape of the dose curve; as a rule, active = well fitted cell-killing curve with a large enough effect in the repeat runs; inconclusive = weak or mixed curves, or effect the other way; inactive = flat fitted curve, though single readings scatter.

{"columns": ["Compound", "Potency"],
 "data": [
  ["CC[C@]12CCCN3CCc4c(n(c5ccccc45)C(=O)C1)[C@@H]32", "4.25 µM (active)"],
  ["CC(=O)[C@@]1(O)CC[C@H]2[C@@H]3C[C@H](C)C4=CC(=O)CC[C@]4(C)[C@H]3CC[C@@]21C", "19 µM (active)"],
  ["CC(C)(C)C(=O)OCOP(=O)(COCCn1cnc2c(N)ncnc21)OCOC(=O)C(C)(C)C", "0.848 µM (active)"],
  ["CC(=O)N(O)CCCCCNC(=O)CCC(=O)N(O)CCCCCNC(=O)CCC(=O)N(O)CCCCCN", "21.3 µM (active)"],
  ["c1ccc(OCc2ccc(CCCN3CCOCC3)cc2)cc1", "21.3 µM (active)"],
  ["CCN(CC)CCOc1ccc2c(c1)C(=O)c1cc(OCCN(CC)CC)ccc1-2", "15.1 µM (active)"],
  ["Cc1cc(O)ccc1N", "43.9 µM (active)"],
  ["Oc1ccc(Cc2ccccc2)cc1", "40.4 µM (active)"],
  ["C=CC(=O)OCC(C)OCC(C)OCC(C)OC(=O)C=C (configuration not stated)", "43.6 µM (active)"],
  ["Cc1cccc(Oc2ccccc2)c1", "47.8 µM (active)"],
  ["CC(C)(C)c1cc(O)c(C(C)(C)C)cc1O", "30.9 µM (active)"],
  ["Oc1ccc(Sc2ccc(O)cc2)cc1", "22.9 µM (active)"]
]}
